Hi there, I'd appreciate the recorded pEC50 for every entry that follows.
target system: hGLP-1R (Homo sapiens)
Sequence (P43220 24-463): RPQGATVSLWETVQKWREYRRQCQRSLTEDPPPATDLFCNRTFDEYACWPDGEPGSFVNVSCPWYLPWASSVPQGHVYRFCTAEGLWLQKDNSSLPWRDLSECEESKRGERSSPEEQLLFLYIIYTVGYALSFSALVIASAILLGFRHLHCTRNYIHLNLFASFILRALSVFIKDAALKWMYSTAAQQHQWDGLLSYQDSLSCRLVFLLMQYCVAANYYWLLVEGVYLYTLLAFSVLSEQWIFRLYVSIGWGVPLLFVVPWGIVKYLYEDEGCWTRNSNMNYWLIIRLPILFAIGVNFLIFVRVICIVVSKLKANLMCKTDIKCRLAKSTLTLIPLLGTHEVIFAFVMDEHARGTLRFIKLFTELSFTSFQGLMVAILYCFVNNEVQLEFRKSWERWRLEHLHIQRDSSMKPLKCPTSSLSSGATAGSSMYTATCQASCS
assay info: Functional cAMP activation in the presence of 0.1% casein (no HSA)
Assay type: cell-based
condition parameters: in the presence of 0.1% casein (no HSA); geometric mean; read-out: Relative cAMP EC50, hGLP-1R
Starred links: 1 amine or outer side, 2 acyl side, 3 side chain; linkers in the order of their positions; H or OH if unused. Non-standard residues stand in square brackets, D forms with d. Groups on a side chain read outwards from the residue. No end group written: not given here. *: point of attachment. C18 diacid = O=C(O)CCCCCCCCCCCCCCCCC(=O)*; Phe(4-CN) = N#Cc1ccc(C[C@H](N)C(=O)O)cc1; γGlu = O=C(O)[C@H](CCC(=O)[*:2])N[*:1]; αMe4Pal = C[C@](N)(Cc1ccncc1)C(=O)O; αMeY = C[C@](N)(Cc1ccc(O)cc1)C(=O)O; 4Pal = N[C@@H](Cc1ccncc1)C(=O)O; αMeL = CC(C)C[C@](C)(N)C(=O)O; Orn = NCCC[C@H](N)C(=O)O; AEEA = NCCOCCOCC(=O)O; Aib = CC(C)(N)C(=O)O
Would you please state pEC50, meaning minus log10 of the concentration in mol/L, as a bare number?

State, in one line, measured pEC50 of H-Y[Aib]QGTFTSD[Phe(4-CN)]S[Orn][αMeL]LDKK([AEEA-γGlu-C18 diacid])AQ[Aib]AFIEYLLE[Aib]GHSSGAPPPSGS-NH2 [Example 190] 8.85

Annotate the substance H-Y[Aib]QGTFTSD[4Pal]S[Orn][αMeL]LD[Orn]K([Glu-γGlu-C18 diacid])AQ[αMe4Pal]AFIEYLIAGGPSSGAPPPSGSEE-NH2 [Example 1061] with its measured pEC50. 8.34

Answer with the recorded pEC50 of Y[Aib]QGTFTSD[4Pal]SQ[αMeL]LD[Orn]K([dE-γGlu-C18 diacid])AQ[αMe4Pal]QFIE[αMeY]LIA[Aib]GPSSGEPPPSGSEE-NH2 [Example 1106] only. 9.06

* * *

target system: hGLP-1R (Homo sapiens)
assay info: Functional cAMP activation in the presence of 0.1% casein (no HSA);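 also: intracellular cAMP rise after 30 min at 37 °C read by HTRF, normalized between buffer only (0%) and maximal control ligand (100%), four-parameter variable-slope fit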
Assay type: cell-based
condition parameters: read-out: Relative cAMP EC50, hGLP-1R
Starred links: 1 amine or outer side, 2 acyl side, 3 side chain; linkers in the order of their positions; H or OH if unused. Non-standard residues stand in square brackets, D forms with d. Groups on a side chain read outwards from the residue. No end group written: not given here. *: point of attachment. C18 diacid = O=C(O)CCCCCCCCCCCCCCCCC(=O)*; αMePhe(2-F) = C[C@](N)(Cc1ccccc1F)C(=O)O; γGlu = O=C(O)[C@H](CCC(=O)[*:2])N[*:1]; αMe4Pal = C[C@](N)(Cc1ccncc1)C(=O)O; αMeY = C[C@](N)(Cc1ccc(O)cc1)C(=O)O; 4Pal = N[C@@H](Cc1ccncc1)C(=O)O; αMeL = CC(C)C[C@](C)(N)C(=O)O; αMeS = C[C@](N)(CO)C(=O)O; Orn = NCCC[C@H](N)C(=O)O; AEEA = NCCOCCOCC(=O)O; Aib = CC(C)(N)C(=O)O
readout name: EC50

For the substance H-Y[Aib]QGT[αMePhe(2-F)]TSD[4Pal]SI[αMeL]LD[Orn]K([AEEA-γGlu-C18 diacid])AQ[Aib][Orn]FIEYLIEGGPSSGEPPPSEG-NH2 [Example 489] , give its reported EC50. 0.172 nM

Supply EC50 value. Item: Y[Aib]QGT[αMePhe(2-F)]TSD[4Pal]SI[αMeL]LD[Orn]K([AEEA-γGlu-C18 diacid])AQ[αMe4Pal][Orn]FI[dE][αMeY]LIEGGPSSGEPPPEGGGE-NH2 [Example 757] 0.236 nM

Query EC50 for H-Y[Aib]QGT[αMePhe(2-F)]TSD[4Pal][αMeS]I[αMeL]LD[Orn]K([γGlu-γGlu-C18 diacid])AQ[αMe4Pal]EFI[dE][αMeY]LIEGGPSSGEPPPSGGGE-NH2 [Example 744] 0.274 nM

Return EC50 (reported value) for this substance: H-Y[Aib]QGT[αMePhe(2-F)]TSD[4Pal]SI[αMeL]LD[Orn]K([AEEA-γGlu-C18 diacid])AQ[αMe4Pal][Orn]FI[dE][αMeY]LIEGGPSSGDPPPEGE-NH2 [Example 727] 0.271 nM

Supply measured EC50 of H-Y[Aib]QGT[αMePhe(2-F)]TSD[4Pal][αMeS]I[αMeL]LD[Orn]K([AEEA-γGlu-C18 diacid])AQ[αMe4Pal]EFI[dE][αMeY]LVEGGPSSGEPPPSGS-NH2 [Example 733] in your reply. 0.293 nM
